assay: forskolin-driven CRE-LacZ activity in PC12 – cell-based, CRE-LacZ reporter, forskolin-stimulated, primary screen (AID 1146); conditions: luminescence, 4.5 h, higher = more signal, called active from +8 up or from −8 down;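 also: PC12 cells with 6xCRE LacZ reporter stimulated by forskolin 10 µM; beta-galactosidase reporter signal reflecting CREB driven transcription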
Is z-score at least 0.03? Then T. If not, F.

Query string: Would you say "COCCCNC(=O)[C@@H]1c2ccccc2C(=O)N(Cc2ccccc2)[C@H]1c1ccc(CO)cc1" shows z-score at minimum 0.03?
Result string: F

Query string: Would you say COc1ccc(NN2C(C(O)c3ccc(N(C)C)cc3)C=CC3C(=O)N(C4CCCCC4)C(=O)C32)cc1 (centres undefined) shows z-score at minimum 0.03?
Result string: F

Query string: Would you say "C=CCN1Cc2ccccc2[C@@H]2OC(c3ccc(OCCCO)cc3)=N[C@]2(CCS(=O)(=O)c2ccccc2)C1=O" shows z-score at minimum 0.03?
Result string: F

* * *

target: Torsin-1A (Homo sapiens) (UniProt O14656); test: torsin A mutant lysate binding on microarrays – cell lysate, small-molecule microarray, COS7 lysate, 635/667 nm fluorescence, primary screen (AID 1150); conditions: COS7 hTOR1A mutant lysate, 635 nm fluorescence, higher = more signal;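 also: score pools 667 nm emission and signal to noise measuring lysate protein binding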
Sequence (O14656 whole entry, looked up): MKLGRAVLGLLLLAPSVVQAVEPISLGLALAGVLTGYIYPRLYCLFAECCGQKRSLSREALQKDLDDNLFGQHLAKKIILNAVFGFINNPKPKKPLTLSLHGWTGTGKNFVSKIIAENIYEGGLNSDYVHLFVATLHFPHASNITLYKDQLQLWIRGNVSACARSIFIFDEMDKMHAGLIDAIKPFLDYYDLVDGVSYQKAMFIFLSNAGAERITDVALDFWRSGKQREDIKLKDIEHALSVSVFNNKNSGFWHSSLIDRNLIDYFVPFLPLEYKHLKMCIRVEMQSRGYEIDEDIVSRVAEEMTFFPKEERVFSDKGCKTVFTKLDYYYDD
REPORTED METRIC: composite z-score
Reply: number alone, nothing else.

Reference set (3 entries):
| COMPOUND | composite z-score |
| --- | --- |
| COc1ccc([Si](C)(C)[C@@H]2[C@@H](CC(=O)N3Cc4ccccc4C[C@H]3CO)O[C@]3(C(=O)N(Cc4cccc(N5CCC5=O)c4)c4ccccc43)[C@H]2C)cc1 | 0.61 |
| CC(=O)NCCCC[C@@H]1NC(=O)[C@H]2C[C@@H](C(=O)O)[C@@H](c3ccc(O)cc3)N2C1=O | 1.69 |
| CC(c1ccccc1)C(O)C1C=CC2C(=O)N(c3ccccc3)C(=O)C2N1Nc1ccccc1 (centres undefined) | 1.07 |

Please look at the following compound next.
Query string: What value of measured composite z-score is listed for "Cc1ccc(S[C@]2(C(=O)O)CC(=O)N(C(C)C)[C@@H]2c2ccc(CO)cc2)cc1" ?
Result string: 1.12

* * *

test: optical density change of DRC41 E. coli – strain DRC41, OD650, 24 h, E. coli filamentation project, primary screen (AID 1093);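 also: MC1000 strain lacking acrAB efflux and sulA so SOS filamentation is blocked; test concentration not given here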; settings: E. coli DRC41 growth, higher = more signal, called active from +8 up or from −8 down
Each entry below carries its recorded z-score.
Reply: number alone, nothing else.

Reference set (3 entries):
| COMPOUND | REPORTED METRIC | MEASURED RESULT |
| --- | --- | --- |
| C#CCNCc1ccccc1 | z-score | -0.276 |
| C[N+](C)(C)CCCCCCNC(=O)[C@H]1C[C@H]2C(=O)N[C@@H](Cc3ccccc3)C(=O)N2[C@H]1c1cccc(OCCO)c1 | z-score | -0.0145 |
| CCCCN1CC=CC23O[C@@H]4C=CCCOC(=O)C4[C@H]2C(=O)N(CCCCCO)[C@@H]3C1=O (some centres not stated) | z-score | -0.0111 |

Query string: What value of measured z-score is listed for "C=CC[C@]1(C(N)=O)N=C(c2ccc(OCCCO)cc2)O[C@H]1c1ccccc1" ?
Result string: 0.0588

Query string: What value of measured z-score is listed for "COCCOC(=O)N1C(=O)[C@@]2(c3ccccc31)[C@H](C(N)=O)[C@H]1C(=O)O[C@H](c3ccccc3)[C@H](c3ccccc3)N1[C@@H]2c1ccc(O)cc1" ?
Result string: 0.628

Query string: What value of measured z-score is listed for "[N-]=[N+]=Nc1ccccc1[C@H]1OC(c2ccc(OCCCO)cc2)=N[C@@]1(CCS(=O)(=O)c1ccccc1)C(=O)NCc1ccccc1" ?
Result string: -0.443
